experiment: Selectivity index, ratio of IC50 for human WI38 cells to IC50 for Leishmania mexicana mexicana MHOM/BZ/84/BEL46 promastigotes; assay type: toxicity, cell-based, WI-38; conditions: read-out: Ratio IC50
Attribute: selectivity ratio

structure-smiles-string | selectivity ratio
C=C[C@H]1CN2CC[C@H]1C[C@H]2[C@@H](O)c1cc(CC[C@@H](C)[C@H]2CC[C@H]3[C@@H]4[C@H](O)C[C@@H]5C[C@H](O)CC[C@]5(C)[C@H]4CC[C@]23C)nc2ccc(OC)cc12 | 0.51
C=C[C@H]1CN2CC[C@H]1C[C@H]2[C@@H](O)c1cc(CC[C@@H](C)[C@H]2CC[C@H]3[C@@H]4CC[C@@H]5C[C@H](OC(C)=O)CC[C@]5(C)[C@H]4CC[C@]23C)nc2ccc(OC)cc12 | 0.57
C=C[C@H]1CN2CC[C@H]1C[C@H]2[C@@H](O)c1cc(CC[C@@H](C)[C@H]2CC[C@H]3[C@@H]4[C@H](OC(C)=O)C[C@@H]5C[C@H](OC(C)=O)CC[C@]5(C)[C@H]4CC[C@]23C)nc2ccccc12 | 0.47
